B1: CDC25A (parent)
chain: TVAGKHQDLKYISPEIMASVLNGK

# Variants of: B1
# EXPERIMENT DESCRIPTION: protein stability index of a GFP-peptide fusion (GPS, HEK-293T) (PSI 1-6); higher = more stable;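 also: lentivirally expressed fusions sorted by FACS into six bins by GFP to DsRed ratio, PSI derived from sequencing read proportions per bin multiplied by bin number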
# EXPERIMENTAL CONDITIONS: c terminus: a fixed tail appended
QUANTITY KIND: protein stability index
Please respond with just the number, no unit label.

K10R    2.8

Q: Consider the variant H6R and give its measured protein stability index.
Ans: 2.81

Q: Same lookup for V20T , please.
Ans: 3.75
